Reported IC50 values for a set of compounds
Test system: Radical scavenging activity
Test details: Antioxidant activity assessed as DPPH radical scavenging activity after 30 mins
Type: functional

[
  {
    "Compound": "CC(=O)Oc1c(O)c(-c2ccc(O)cc2)c(OC(=O)CCc2ccccc2)c(O)c1-c1ccc(O)cc1",
    "IC50": "> 500 µM"
  },
  {
    "Compound": "CC(=O)Oc1c(O)c(-c2ccc(O)cc2)c(OC(=O)C[C@@H](C)OC(C)=O)c(O)c1-c1ccc(O)cc1",
    "IC50": "> 500 µM"
  },
  {
    "Compound": "COc1ccc(O)c(C(C)(C)C)c1.COc1ccc(O)cc1C(C)(C)C [BUTYLATED HYDROXYANISOLE]",
    "IC50": "83 µM"
  },
  {
    "Compound": "CC(=O)Oc1c(OC(=O)CCc2ccccc2)c(-c2ccc(O)cc2)c(OC(=O)C[C@@H](C)O)c(OC(=O)C[C@@H](C)O)c1-c1ccc(O)cc1",
    "IC50": "> 500 µM"
  },
  {
    "Compound": "CCCC(=O)Oc1c(O)c(-c2ccc(O)cc2)c(OC(C)=O)c(O)c1-c1ccc(O)cc1",
    "IC50": "> 500 µM"
  },
  {
    "Compound": "CC(=O)O[C@H](C)CC(=O)Oc1c(O)c(-c2ccc(O)cc2)c(OC(=O)CCc2ccccc2)c(O)c1-c1ccc(O)cc1",
    "IC50": "> 500 µM"
  },
  {
    "Compound": "C[C@@H](O)CC(=O)Oc1c(O)c(-c2ccc(O)cc2)c(OC(=O)CCc2ccccc2)c(O)c1-c1ccc(O)cc1",
    "IC50": "> 500 µM"
  },
  {
    "Compound": "CC(=O)O[C@H](C)CC(=O)Oc1c(O)c(-c2ccc(O)cc2)c(OC(=O)C[C@@H](C)O)c(O)c1-c1ccc(O)cc1",
    "IC50": "> 500 µM"
  },
  {
    "Compound": "CC(=O)Oc1c(OC(=O)C[C@@H](C)O)c(-c2ccc(O)cc2)c(OC(C)=O)c(OC(=O)C[C@@H](C)O)c1-c1ccc(O)cc1",
    "IC50": "> 500 µM"
  },
  {
    "Compound": "CC(=O)O[C@H](C)CC(=O)Oc1c(O)c(-c2ccc(O)cc2)c(OC(=O)c2ccccc2)c(O)c1-c1ccc(O)cc1",
    "IC50": "> 500 µM"
  },
  {
    "Compound": "O=C(CCc1ccccc1)Oc1c(O)c(-c2ccc(O)cc2)c(OC(=O)CCc2ccccc2)c(O)c1-c1ccc(O)cc1",
    "IC50": "> 500 µM"
  },
  {
    "Compound": "CC(=O)Oc1c(O)c(-c2ccc(O)cc2)c(OC(C)=O)c(O)c1-c1ccc(O)cc1",
    "IC50": "> 500 µM"
  },
  {
    "Compound": "CC(=O)O[C@H](C)CC(=O)Oc1c(O)c(-c2ccc(O)cc2)c(OC(=O)C[C@@H](C)OC(C)=O)c(O)c1-c1ccc(O)cc1",
    "IC50": "> 500 µM"
  },
  {
    "Compound": "Cc1c(C)c2c(c(C)c1O)CCC(C)(C(=O)O)O2 (stereo not drawn)",
    "IC50": "33 µM"
  },
  {
    "Compound": "CC(=O)Oc1c(O)c(-c2ccc(O)cc2)c(OC(=O)C[C@@H](C)O)c(O)c1-c1ccc(O)cc1",
    "IC50": "> 500 µM"
  },
  {
    "Compound": "O=C(O)/C=C/c1ccc(O)c(O)c1",
    "IC50": "21.1 µM"
  },
  {
    "Compound": "CC(=O)Oc1c(OC(=O)C[C@@H](C)O)c(-c2ccc(O)cc2)c(OC(=O)CCc2ccccc2)c(OC(=O)C[C@@H](C)O)c1-c1ccc(O)cc1",
    "IC50": "> 500 µM"
  },
  {
    "Compound": "CCCC(=O)Oc1c(O)c(-c2ccc(O)cc2)c(OC(=O)CCc2ccccc2)c(O)c1-c1ccc(O)cc1",
    "IC50": "> 500 µM"
  }
]
